Hello, the source for this data is ChEMBL document CHEMBL5614387, in case you need it.

Item-by-item account of selectivity ratio
assay: Selectivity index, ratio of CC50 for human MT4 cells to EC50 for wild-type HIV-1 IIIB infected in human MT4 cells; assay type: toxicity, cell-based; details: read-out: Ratio CC50/EC50
readout.type: selectivity ratio

record.smiles: Cc1cc(C#N)cc(C)c1Oc1cc(-c2cncnc2)nc(NC2CCN(Cc3ccc(S(N)(=O)=O)cc3)CC2)n1
value: 25400
//
record.smiles: Cc1cc(C#N)cc(C)c1Oc1cc(-c2cncnc2)nc(NC2CCN(Cc3ccc(C(N)=O)cc3)CC2)n1
value: 10100
//
record.smiles: Cc1cc(C#N)cc(C)c1Oc1cc(-c2ccsc2)nc(NC2CCN(Cc3ccc(S(N)(=O)=O)cc3)CC2)n1
value: 3330
//
record.smiles: Cc1cc(C#N)cc(C)c1Oc1cc(-c2cccnc2)nc(NC2CCN(Cc3ccc(S(N)(=O)=O)cc3)CC2)n1
value: 4500
//
record.smiles: Cc1cc(C#N)cc(C)c1Oc1cc(-c2cncnc2)nc(NC2CCN(Cc3ccc(S(C)(=O)=O)cc3)CC2)n1
value: 16100
//
record.smiles: Cc1cc(C#N)cc(C)c1Oc1cc(-c2ccncc2)nc(NC2CCN(Cc3ccc(S(N)(=O)=O)cc3)CC2)n1
value: 5080
//
record.smiles: Cc1cc(C#N)cc(C)c1Oc1cc(-c2ccccc2)nc(NC2CCN(Cc3ccc(C(N)=O)cc3)CC2)n1
value: 3710
//
record.smiles: Cc1cc(C#N)cc(C)c1Oc1cc(-c2cccnc2)nc(NC2CCN(Cc3ccc(S(C)(=O)=O)cc3)CC2)n1
value: 5000

* * *

assay: Cytotoxicity against human MT4 cells assessed as reduction in cell viability by MTT assay; type: toxicity, cell-based

record.smiles: Cc1cc(C#N)cc(C)c1Oc1cc(-c2ccsc2)nc(NC2CCN(Cc3ccc(S(N)(=O)=O)cc3)CC2)n1
output.unit: µM
relation.operator: =
CC50: 14.8
//
record.smiles: Cc1cc(C#N)cc(C)c1Oc1cc(-c2cncnc2)nc(NC2CCN(Cc3ccc(S(N)(=O)=O)cc3)CC2)n1
output.unit: µM
relation.operator: =
CC50: 109
//
record.smiles: Cc1cc(C#N)cc(C)c1Oc1cc(-c2cccnc2)nc(NC2CCN(Cc3ccc(S(N)(=O)=O)cc3)CC2)n1
output.unit: µM
relation.operator: =
CC50: 18.2
//
record.smiles: Cc1cc(C#N)cc(C)c1Oc1cc(-c2ccsc2)nc(NC2CCN(Cc3ccc(S(C)(=O)=O)cc3)CC2)n1
output.unit: µM
relation.operator: >
CC50: 219
//
record.smiles: Cc1cc(C#N)cc(C)c1Oc1cc(-c2ccncc2)nc(NC2CCN(Cc3ccc(S(N)(=O)=O)cc3)CC2)n1
output.unit: µM
relation.operator: =
CC50: 18.4
//
record.smiles: Cc1cc(C#N)cc(C)c1Oc1cc(-c2ccsc2)nc(NC2CCN(Cc3ccc(C(N)=O)cc3)CC2)n1
output.unit: µM
relation.operator: =
CC50: 23.7
//
record.smiles: Cc1cc(C#N)cc(C)c1Oc1cc(-c2cccs2)nc(NC2CCN(Cc3ccc(S(C)(=O)=O)cc3)CC2)n1
output.unit: µM
relation.operator: =
CC50: 16.6
//
record.smiles: Cc1cc(C#N)cc(C)c1Oc1cc(-c2ccoc2)nc(NC2CCN(Cc3ccc(C(N)=O)cc3)CC2)n1
output.unit: µM
relation.operator: =
CC50: 19.8
//
record.smiles: Cc1cc(C#N)cc(C)c1Oc1cc(-c2ccco2)nc(NC2CCN(Cc3ccc(S(C)(=O)=O)cc3)CC2)n1
output.unit: µM
relation.operator: =
CC50: 20.7
//
record.smiles: Cc1cc(C#N)cc(C)c1Oc1cc(-c2cccnc2)nc(NC2CCN(Cc3ccc(C(N)=O)cc3)CC2)n1
output.unit: µM
relation.operator: =
CC50: 17.2
//
record.smiles: Cc1cc(C#N)cc(C)c1Oc1cc(-c2ccncc2)nc(NC2CCN(Cc3ccc(S(C)(=O)=O)cc3)CC2)n1
output.unit: µM
relation.operator: =
CC50: 26.3
//
record.smiles: Cc1cc(C#N)cc(C)c1Oc1cc(-c2ccccc2)nc(NC2CCN(Cc3ccc(S(C)(=O)=O)cc3)CC2)n1
output.unit: µM
relation.operator: =
CC50: 12.5
//
record.smiles: Cc1cc(C#N)cc(C)c1Oc1cc(-c2ccccc2)nc(NC2CCN(Cc3ccc(C(N)=O)cc3)CC2)n1
output.unit: µM
relation.operator: =
CC50: 23.1
//
record.smiles: Cc1cc(C#N)cc(C)c1Oc1cc(-c2cccs2)nc(NC2CCN(Cc3ccc(C(N)=O)cc3)CC2)n1
output.unit: µM
relation.operator: =
CC50: 19.3
//
record.smiles: Cc1cc(C#N)cc(C)c1Oc1cc(-c2ccco2)nc(NC2CCN(Cc3ccc(S(N)(=O)=O)cc3)CC2)n1
output.unit: µM
relation.operator: =
CC50: 22.8
//
record.smiles: Cc1cc(C#N)cc(C)c1Oc1cc(-c2cncnc2)nc(NC2CCN(Cc3ccc(S(C)(=O)=O)cc3)CC2)n1
output.unit: µM
relation.operator: =
CC50: 108

* * *

system: Human immunodeficiency virus 1; assay: Antiviral activity against HIV-1 harboring RT Y188L mutant infected in human MT4 cells assessed as protection against virus-induced cytopathic effect by MTT assay; assay type: functional, organism-based; settings: Human immunodeficiency virus 1, MT4
Item-by-item account of EC50
readout.type: EC50

record.smiles: Cc1cc(C#N)cc(C)c1Oc1cc(-c2ccsc2)nc(NC2CCN(Cc3ccc(S(N)(=O)=O)cc3)CC2)n1
value: 46.4 nM

record.smiles: Cc1cc(C#N)cc(C)c1Oc1cc(-c2cncnc2)nc(NC2CCN(Cc3ccc(C(N)=O)cc3)CC2)n1
value: 35.3 nM

record.smiles: Cc1cc(C#N)cc(C)c1Oc1cc(-c2cncnc2)nc(NC2CCN(Cc3ccc(S(N)(=O)=O)cc3)CC2)n1
value: 55 nM

record.smiles: Cc1cc(C#N)cc(C)c1Oc1nc(Nc2ccc(C#N)cc2)nc(N)c1Br
value: 30.5 nM

record.smiles: Cc1cc(C#N)cc(C)c1Oc1cc(-c2cccnc2)nc(NC2CCN(Cc3ccc(S(N)(=O)=O)cc3)CC2)n1
value: 36.5 nM

* * *

test system: Human immunodeficiency virus 1; assay: Antiviral activity against HIV-1 harboring RT RES056 mutant infected in human MT4 cells assessed as protection against virus-induced cytopathic effect by MTT assay; format: functional, organism-based; settings: Human immunodeficiency virus 1, MT4
Decision: EC50 beneath 800 nM gives satisfied; EC50 meeting or exceeding 800 nM gives not satisfied.

record.smiles: Cc1cc(C#N)cc(C)c1Oc1cc(-c2cccnc2)nc(NC2CCN(Cc3ccc(S(N)(=O)=O)cc3)CC2)n1
assayed.target: Human immunodeficiency virus 1
label.class: satisfied
--
record.smiles: Cc1cc(C#N)cc(C)c1Oc1cc(-c2cncnc2)nc(NC2CCN(Cc3ccc(C(N)=O)cc3)CC2)n1
assayed.target: Human immunodeficiency virus 1
label.class: not satisfied
--
record.smiles: Cc1cc(C#N)cc(C)c1Oc1cc(-c2ccncc2)nc(NC2CCN(Cc3ccc(S(N)(=O)=O)cc3)CC2)n1
assayed.target: Human immunodeficiency virus 1
label.class: not satisfied
--
record.smiles: Cc1cc(C#N)cc(C)c1Oc1cc(-c2cccnc2)nc(NC2CCN(Cc3ccc(C(N)=O)cc3)CC2)n1
assayed.target: Human immunodeficiency virus 1
label.class: not satisfied
--
record.smiles: Cc1cc(C#N)cc(C)c1Oc1cc(-c2ccncc2)nc(NC2CCN(Cc3ccc(S(C)(=O)=O)cc3)CC2)n1
assayed.target: Human immunodeficiency virus 1
label.class: not satisfied
--
record.smiles: Cc1cc(C#N)cc(C)c1Oc1cc(-c2cccs2)nc(NC2CCN(Cc3ccc(C(N)=O)cc3)CC2)n1
assayed.target: Human immunodeficiency virus 1
label.class: satisfied
--
record.smiles: Cc1cc(C#N)cc(C)c1Oc1cc(-c2ccsc2)nc(NC2CCN(Cc3ccc(S(N)(=O)=O)cc3)CC2)n1
assayed.target: Human immunodeficiency virus 1
label.class: satisfied
--
record.smiles: Cc1cc(C#N)cc(C)c1Oc1nc(Nc2ccc(C#N)cc2)nc(N)c1Br
assayed.target: Human immunodeficiency virus 1
label.class: satisfied
--
record.smiles: Cc1cc(C#N)cc(C)c1Oc1cc(-c2cncnc2)nc(NC2CCN(Cc3ccc(S(N)(=O)=O)cc3)CC2)n1
assayed.target: Human immunodeficiency virus 1
label.class: not satisfied
--
record.smiles: Cc1ccnc2c1NC(=O)c1cccnc1N2C1CC1
assayed.target: Human immunodeficiency virus 1
label.class: not satisfied
--
record.smiles: Cc1cc(C#N)cc(C)c1Oc1cc(-c2ccccc2)nc(NC2CCN(Cc3ccc(S(C)(=O)=O)cc3)CC2)n1
assayed.target: Human immunodeficiency virus 1
label.class: satisfied

* * *

biological target: Human immunodeficiency virus type 1 reverse transcriptase (Human immunodeficiency virus 1, UniProt Q72547); assay: Inhibition of wild-type HIV-1 reverse transcriptase incubated for 1 hr in presence of biotin-dUTP by ELISA
pIC50: −log10 of the molar value.
Item-by-item account of pIC50

record.smiles: Cc1cc(C#N)cc(C)c1Oc1cc(-c2cccs2)nc(NC2CCN(Cc3ccc(C(N)=O)cc3)CC2)n1
pIC50: 6.52
--
record.smiles: Cc1cc(C#N)cc(C)c1Oc1cc(-c2ccncc2)nc(NC2CCN(Cc3ccc(S(N)(=O)=O)cc3)CC2)n1
pIC50: 6.29
--
record.smiles: Cc1cc(C#N)cc(C)c1Oc1cc(-c2cncnc2)nc(NC2CCN(Cc3ccc(S(N)(=O)=O)cc3)CC2)n1
pIC50: 6.13
--
record.smiles: Cc1cc(C#N)cc(C)c1Oc1cc(-c2cccnc2)nc(NC2CCN(Cc3ccc(S(C)(=O)=O)cc3)CC2)n1
pIC50: 6.22
--
record.smiles: Cc1cc(C#N)cc(C)c1Oc1cc(-c2cccnc2)nc(NC2CCN(Cc3ccc(S(N)(=O)=O)cc3)CC2)n1
pIC50: 6.34
--
record.smiles: Cc1cc(C#N)cc(C)c1Oc1cc(-c2ccccc2)nc(NC2CCN(Cc3ccc(S(C)(=O)=O)cc3)CC2)n1
pIC50: 6.64
--
record.smiles: Cc1cc(C#N)cc(C)c1Oc1cc(-c2cncnc2)nc(NC2CCN(Cc3ccc(C(N)=O)cc3)CC2)n1
pIC50: 6.22
--
record.smiles: Cc1cc(C#N)cc(C)c1Oc1cc(-c2ccsc2)nc(NC2CCN(Cc3ccc(S(N)(=O)=O)cc3)CC2)n1
pIC50: 6.63
--
record.smiles: Cc1cc(C#N)cc(C)c1Oc1cc(-c2cccnc2)nc(NC2CCN(Cc3ccc(C(N)=O)cc3)CC2)n1
pIC50: 6.37
--
record.smiles: Cc1cc(C#N)cc(C)c1Oc1cc(-c2ccncc2)nc(NC2CCN(Cc3ccc(S(C)(=O)=O)cc3)CC2)n1
pIC50: 6.28
